test system: Human rotavirus Wa group; assay: Anti-rotavirus assay, prevention of cytopathic effect in MA104 cells (mixed treatment); assay type: cell-based; conditions: therapeutic index, CC50/EC50
Each entry below carries its recorded TI (CC50/EC50).
Note: the reply should be a number with no unit written.

See these solved cases before continuing.
[[record]]
molecule = "COc1cc(CCCO)cc2c1CN(C)C2=O"
test_system = "Human rotavirus Wa group"
obs_value = 15.3

[[record]]
molecule = "COc1cc(CO)cc2c1CN(C)C2=O"
test_system = "Human rotavirus Wa group"
obs_value = 11.8

[[record]]
molecule = "NC(=O)c1ncn([C@@H]2O[C@H](CO)[C@@H](O)[C@H]2O)n1 [Ribavirin, reference compound]"
test_system = "Human rotavirus Wa group"
obs_value = 19.2

[[record]]
molecule = "COc1cc(C)cc2c1CN(C)C2=O"
test_system = "Human rotavirus Wa group"
obs_value = 9.75

[[record]]
molecule = "COc1cc(C)cc2c1CN(Cc1ccc3c(c1CC(C)=O)OC(C)(C)CC3=O)C2=O"
test_system = "Human rotavirus Wa group"
obs_value = 12.0


Could you now look at the following molecule, please?
Task: I'd like to know its TI (CC50/EC50). The molecule in question is CC(=O)Cc1c(CO)ccc2c1OC(C)(C)CC2=O
Output: 12.4
